ASSAYED_SYSTEM: human thyroid hormone receptors TRβ1 (Homo sapiens, UniProt P10828)
Construct: made in house; host or cells: Sf9 insect cells (baculovirus)
Sequence (P10828 1-461): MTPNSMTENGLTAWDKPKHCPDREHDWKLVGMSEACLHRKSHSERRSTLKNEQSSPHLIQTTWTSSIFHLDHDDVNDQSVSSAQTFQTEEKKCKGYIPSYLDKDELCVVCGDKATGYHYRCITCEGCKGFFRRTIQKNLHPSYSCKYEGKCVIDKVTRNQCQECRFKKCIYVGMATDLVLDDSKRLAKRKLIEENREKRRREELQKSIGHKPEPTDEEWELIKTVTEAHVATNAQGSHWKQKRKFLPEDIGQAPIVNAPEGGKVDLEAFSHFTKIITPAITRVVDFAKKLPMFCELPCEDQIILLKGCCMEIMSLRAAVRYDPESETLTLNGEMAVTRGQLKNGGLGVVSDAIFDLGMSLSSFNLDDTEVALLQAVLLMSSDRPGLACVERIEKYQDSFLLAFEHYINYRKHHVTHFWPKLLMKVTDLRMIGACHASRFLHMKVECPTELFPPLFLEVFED
Sequence (P19793 1-462 partner): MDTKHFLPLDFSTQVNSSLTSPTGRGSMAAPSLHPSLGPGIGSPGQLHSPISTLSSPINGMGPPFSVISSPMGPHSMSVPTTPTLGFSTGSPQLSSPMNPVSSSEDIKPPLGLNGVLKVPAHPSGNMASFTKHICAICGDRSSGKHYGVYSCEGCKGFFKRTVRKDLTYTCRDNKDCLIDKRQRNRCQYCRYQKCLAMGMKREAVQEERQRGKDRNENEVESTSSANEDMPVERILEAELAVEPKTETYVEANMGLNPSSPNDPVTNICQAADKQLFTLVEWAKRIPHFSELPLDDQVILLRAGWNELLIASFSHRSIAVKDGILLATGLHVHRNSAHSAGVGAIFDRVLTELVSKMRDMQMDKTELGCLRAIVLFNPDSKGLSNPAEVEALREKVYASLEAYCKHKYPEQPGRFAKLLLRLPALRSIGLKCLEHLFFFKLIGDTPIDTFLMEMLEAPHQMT
TEST_NAME: Receptor binding to TRβ1 (gel filtration and scintillation proximity assay, labeled T3)
CONDITION_NOTES: SPA data; read-out: Ki TRβ
QUANTITY: log10 Ki (log10 of the value in nM)
Values reflect log10 of reported Ki (nM).

>>> measurement("Cc1cc(OC[P@@]2(=O)OCC[C@@H](c3ccncc3)O2)cc(C)c1Cc1ccc(O)c(C(C)C)c1 [Compound 13-5-cis]")
3.00
>>> measurement("O=P(O)(O)CCc1cc(I)c(Oc2ccc(O)c(I)c2)c(I)c1")
0.73
>>> measurement("CC(C)c1cc(Oc2c(Cl)cc(OCP(=O)(O)O)cc2Cl)ccc1O")
1.30
>>> measurement("COP(=O)(O)COc1cc(C)c(Cc2ccc(O)c(C(C)C)c2)c(C)c1")
0.48

Moving on to another compound below.
QUERY: # query: log10 Ki of entry `CC(=O)Nc1ccc(Cc2c(C)cc(OCP(=O)(O)O)cc2C)cc1C(C)C`
RESULT: 1.79

====

ASSAYED_SYSTEM: human thyroid hormone receptors TRβ1 (Homo sapiens, UniProt P10828)
Construct: made in house; host or cells: Sf9 insect cells (baculovirus)
TEST_NAME: Receptor binding to TRβ1 (gel filtration and scintillation proximity assay, labeled T3)
CONDITION_NOTES: SPA data; read-out: Ki TRβ
QUANTITY: Ki (nM)
Answer format: numeric, nM implied, no suffix.

These recorded examples may help you get a feel for the data.
>>> measurement("Cc1cc(OC[P@@]2(=O)OCC[C@@H](c3cccnc3)O2)cc(C)c1Cc1ccc(O)c(C(C)C)c1 [Compound 13-4-cis]")
1520
>>> measurement("Cc1cc(OCP(=O)(O)O)cc(C)c1Cc1ccc(O)c(C(=O)NC(C)C)c1")
106
>>> measurement("Cc1cc(OCP(=O)(O)O)cc(C)c1Oc1ccc(O)c(C(C)C)c1")
73
>>> measurement("Cc1cc(OC(F)(F)P(=O)(O)O)cc(C)c1Cc1ccc(O)c(C(C)C)c1")
7.6
>>> measurement("Cc1cc(OC[P@]2(=O)OCC[C@@H](c3cc(Cl)cc(Cl)c3)O2)cc(C)c1Cc1ccc(O)c(C(C)C)c1 [Compound 13-7-trans]")
3800

QUERY: # input compound: `O=P(O)(O)Cc1cc(Cl)c(Oc2ccc(O)c(Cc3ccc(F)cc3)c2)c(Cl)c1` ; wanted: its Ki
RESULT: 30.3

QUERY: And Cc1cc(OC[P@@]2(=O)OCC[C@@H](c3cccc(F)c3)O2)cc(C)c1Cc1ccc(O)c(C(C)C)c1 [Compound 13-3-cis] ?
RESULT: 3430

====

TEST_NAME: Tissue distribution and pharmacokinetics following IP administration to normal rats
Format: in vivo, SD rats
CONDITION_NOTES: male, SD, rat, plasma, 10 mg/kg IP
QUANTITY: Tmax (min)
Write the number in min without appending the unit.

>>> measurement("Cc1cc(OCC(=O)O)cc(C)c1Cc1ccc(O)c(C(C)C)c1 [Compound 17, reference compound]")
20

Next:
QUERY: Item Cc1cc(OCP(=O)(O)O)cc(C)c1Cc1ccc(O)c(C(C)C)c1 [Compound 7] has what recorded Tmax?
RESULT: 20

====

ASSAYED_SYSTEM: human thyroid hormone receptors TRα1 (Homo sapiens, UniProt P10827)
Construct: made in house; host or cells: Sf9 insect cells (baculovirus)
TEST_NAME: Receptor binding to TRα1 (gel filtration and scintillation proximity assay, labeled T3)
CONDITION_NOTES: SPA data; read-out: Ki TRα
QUANTITY: pKi
// field semantics: pKi = negative decimal log of concentration (mol/L)

# example entries with known answers
>>> measurement("O=P(O)(O)Cc1cc(Cl)c(Oc2ccc(O)c(S(=O)(=O)N3CCCCC3)c2)c(Cl)c1 [Compound 9]")
6.46
>>> measurement("Cc1cc(OC[P@@]2(=O)OCC[C@@H](c3cccnc3)O2)cc(C)c1Cc1ccc(O)c(C(C)C)c1 [Compound 13-4-cis]")
5.26
>>> measurement("Cc1cc(OCP(=O)(O)O)c(I)c(C)c1Cc1ccc(O)c(C(C)C)c1 [Compound 46]")
7.70

QUERY: Name the reported pKi value associated with the molecule Cc1cc(OC[P@@]2(=O)OCC[C@@H](c3ccncc3)O2)cc(C)c1Cc1ccc(O)c(C(C)C)c1 [Compound 13-5-cis]
RESULT: 5.35

====

TEST_NAME: Prodrug activation in rat liver microsomes
Format: in vitro ADME
CONDITION_NOTES: rat, liver microsomes from dexamethasone-treated rats; intrinsic clearance calculated from the kinetic parameters
Listing of entries alongside the reported microsomal CLint.
# output: bare number, implied unit µL/min/mg

Worked cases, microsomal CLint given:
>>> measurement("Cc1cc(OC[P@@]2(=O)OCC[C@@H](c3cccnc3)O2)cc(C)c1Cc1ccc(O)c(C(C)C)c1 [Compound 13-4-cis]")
30
>>> measurement("Cc1cc(OC[P@@]2(=O)OCC[C@@H](c3ccncc3)O2)cc(C)c1Cc1ccc(O)c(C(C)C)c1 [Compound 13-5-cis]")
29
>>> measurement("Cc1cc(OC[P@@]2(=O)OCC[C@@H](c3cccc(Br)c3)O2)cc(C)c1Cc1ccc(O)c(C(C)C)c1 [Compound 13-2-cis]")
86

QUERY: Which microsomal CLint value belongs to Cc1cc(OC[P@]2(=O)OCC[C@H](c3ccc(Cl)cc3)O2)cc(C)c1Cc1ccc(O)c(C(C)C)c1 [Compound 13-6-cis] ?
RESULT: 62

QUERY: Note, next up: Cc1cc(OC[P@@]2(=O)OCC[C@@H](c3cccc(F)c3)O2)cc(C)c1Cc1ccc(O)c(C(C)C)c1 [Compound 13-3-cis]
RESULT: 46

QUERY: // query: Cc1cc(OC[P@@]2(=O)OCC[C@@H](c3cccc(Cl)c3)O2)cc(C)c1Cc1ccc(O)c(C(C)C)c1 [Compound 13-1-cis]
RESULT: 56

QUERY: Now consider `Cc1cc(OCP(=O)(OCOC(=O)OC(C)C)OCOC(=O)OC(C)C)cc(C)c1Cc1ccc(O)c(C(C)C)c1` and answer again.
RESULT: 54

====

ASSAYED_SYSTEM: human thyroid hormone receptors TRα1 (Homo sapiens, UniProt P10827)
Construct: made in house; host or cells: Sf9 insect cells (baculovirus)
Sequence (P10827 1-410 isoform P10827-2): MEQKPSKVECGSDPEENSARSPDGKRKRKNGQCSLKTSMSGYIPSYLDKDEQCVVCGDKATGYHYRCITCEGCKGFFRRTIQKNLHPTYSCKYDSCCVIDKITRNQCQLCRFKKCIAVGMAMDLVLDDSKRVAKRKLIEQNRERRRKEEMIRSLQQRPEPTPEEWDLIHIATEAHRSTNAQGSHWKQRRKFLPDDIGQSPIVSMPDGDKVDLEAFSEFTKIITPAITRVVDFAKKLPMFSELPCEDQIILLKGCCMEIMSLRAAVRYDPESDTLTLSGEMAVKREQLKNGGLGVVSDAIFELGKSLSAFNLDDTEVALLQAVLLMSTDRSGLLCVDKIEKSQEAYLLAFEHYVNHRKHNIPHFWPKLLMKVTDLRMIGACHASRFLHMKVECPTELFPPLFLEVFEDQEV
Sequence (P19793 1-462 partner): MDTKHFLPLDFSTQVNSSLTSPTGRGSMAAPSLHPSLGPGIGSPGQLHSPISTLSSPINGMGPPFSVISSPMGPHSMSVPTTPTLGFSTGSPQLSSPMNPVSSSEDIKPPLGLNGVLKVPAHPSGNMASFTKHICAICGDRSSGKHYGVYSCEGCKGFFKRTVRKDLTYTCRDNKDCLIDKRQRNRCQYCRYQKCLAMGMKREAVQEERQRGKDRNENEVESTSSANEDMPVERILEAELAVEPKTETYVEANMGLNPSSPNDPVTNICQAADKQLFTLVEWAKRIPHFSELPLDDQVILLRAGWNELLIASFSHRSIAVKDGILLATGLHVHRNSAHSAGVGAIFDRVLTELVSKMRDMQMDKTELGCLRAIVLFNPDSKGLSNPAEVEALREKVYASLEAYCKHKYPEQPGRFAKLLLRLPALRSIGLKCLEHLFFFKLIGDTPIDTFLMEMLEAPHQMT
TEST_NAME: Receptor binding to TRα1 (gel filtration and scintillation proximity assay, labeled T3)
CONDITION_NOTES: SPA data; read-out: Ki TRα
# Ki listing for each entry below
Your answer should be a plain number; it is taken to be in nM.

>>> measurement("CC(C)c1cc(Oc2c(Cl)cc(OCP(=O)(O)O)cc2Cl)ccc1O")
114

QUERY: What value of Ki has been reported for the following compound? `CC(C)c1cc(Oc2c(I)cc(CCP(=O)(O)O)cc2I)ccc1O`
RESULT: 14.1
